# Test system: conscious cynomolgus monkeys
# test description: Sedation score during the IOP experiments
# Assay type: in vivo, cynomolgus monkey
# Parameters: key: 0=alert, typical vocalization, movement, etc.; 1=calm, less movement; 2=slightly sedated, some vocalization, responsive to stimulation; 3=sedated, no vocalization, some response to stimulation; 4=asleep
# stated conditions: ocular dose 0.1%
Sedation (0-4) reference

>  <molecule>
c1ccc2c(c1)CC(Cc1c[nH]cn1)CO2 (stereo not drawn)

>  <Sedation (0-4)>
0

$$$$
>  <molecule>
Cl.O=C1c2ccsc2CCC1Cc1c[nH]cn1 (stereo not drawn)

>  <Sedation (0-4)>
0

$$$$
>  <molecule>
Brc1c(NC2=NCCN2)ccc2nccnc12 [brimonidine, reference compound]

>  <Sedation (0-4)>
1

$$$$
>  <molecule>
c1ccc2c(c1)CCC(Cc1c[nH]cn1)C2 (stereo not drawn)

>  <Sedation (0-4)>
0

$$$$
>  <molecule>
c1nc(CC2CCc3sccc3C2)c[nH]1 (stereo not drawn)

>  <Sedation (0-4)>
0

$$$$
>  <molecule>
Clc1cccc(Cl)c1N=C1NCCN1 [clonidine, reference compound]

>  <Sedation (0-4)>
1

$$$$

* * *

Maximum % Decrease From Pretreatment Levels, Mean Arterial Blood Pressure reference
# System: conscious cynomolgus monkeys
# test description: Cardiovascular side effects (blood pressure, heart rate) after i.v. administration
# Type: in vivo, cynomolgus monkey
# stated conditions: i.v. 17 μg/kg, up to 6 hours; + with * = increase from base levels
measurement kind: Maximum % Decrease From Pretreatment Levels, Mean Arterial Blood Pressure

>  <compound>
c1nc(CC2CCCCC2)c[nH]1 [Example J-1, 4(5)-cyclohexylmethyl-1H-imidazole]

>  <endpoint result>
7 ± 5.3%

$$$$
>  <compound>
Brc1c(NC2=NCCN2)ccc2nccnc12 [brimonidine, reference compound]

>  <endpoint result>
36 ± 3%

$$$$
>  <compound>
c1ccc2sc(Cc3c[nH]cn3)cc2c1 [Example C-9]

>  <endpoint result>
1.0 ± 4.1%

$$$$
>  <compound>
Clc1cccc(Cl)c1N=C1NCCN1 [clonidine, reference compound]

>  <endpoint result>
29 ± 7%

$$$$
>  <compound>
CN1CCOc2ccc(N=C3NCCN3)cc21 [Example E-1]

>  <endpoint result>
7 ± 4%

$$$$

* * *

# System: conscious cynomolgus monkeys
# test description: Cardiovascular side effects (blood pressure, heart rate) after i.v. administration
# Assay type: in vivo, cynomolgus monkey
# stated conditions: i.v. 50 μg/kg, up to 6 hours; + with * = increase from base levels
measurement kind: Maximum % Decrease From Pretreatment Levels, Heart Rate (%)

>  <compound>
c1nc(CC2CCCCC2)c[nH]1 [Example J-1, 4(5)-cyclohexylmethyl-1H-imidazole]

>  <subject of test>
conscious cynomolgus monkeys

>  <endpoint result>
6

$$$$
>  <compound>
Clc1cccc(Cl)c1N=C1NCCN1 [clonidine, reference compound]

>  <subject of test>
conscious cynomolgus monkeys

>  <endpoint result>
50

$$$$
>  <compound>
CN1CCOc2ccc(N=C3NCCN3)cc21 [Example E-1]

>  <subject of test>
conscious cynomolgus monkeys

>  <endpoint result>
14

$$$$
>  <compound>
c1ccc2c(c1)CCC(Cc1c[nH]cn1)C2 (centres unmarked) [Example B-3b]

>  <subject of test>
conscious cynomolgus monkeys

>  <endpoint result>
10.0

$$$$
>  <compound>
Brc1c(NC2=NCCN2)ccc2nccnc12 [brimonidine, reference compound]

>  <subject of test>
conscious cynomolgus monkeys

>  <endpoint result>
54

$$$$

* * *

# Tested on: conscious cynomolgus monkeys
# test description: Cardiovascular side effects (blood pressure, heart rate) after i.v. administration
# Format: in vivo, cynomolgus monkey
# stated conditions: i.v. 500 μg/kg, up to 6 hours; + with * = increase from base levels
measurement kind: Maximum % Decrease From Pretreatment Levels, Heart Rate (%)

>  <compound>
c1ccc(Cc2c[nH]cn2)cc1

>  <subject of test>
conscious cynomolgus monkeys

>  <endpoint unit>
%

>  <endpoint result>
16.6

$$$$
>  <compound>
c1csc(Cc2c[nH]cn2)c1

>  <subject of test>
conscious cynomolgus monkeys

>  <endpoint unit>
%

>  <endpoint result>
6.5

$$$$
>  <compound>
c1nc(CC2CCCCC2)c[nH]1

>  <subject of test>
conscious cynomolgus monkeys

>  <endpoint unit>
%

>  <endpoint result>
7

$$$$
>  <compound>
Cc1[nH]cnc1Cc1ccc2c(c1)OCCO2

>  <subject of test>
conscious cynomolgus monkeys

>  <endpoint unit>
%

>  <endpoint result>
5.5

$$$$
>  <compound>
Cc1ccc(Cc2c[nH]cn2)s1

>  <subject of test>
conscious cynomolgus monkeys

>  <endpoint unit>
%

>  <endpoint result>
10.6

$$$$
>  <compound>
O=C1c2ccccc2OCC1Cc1c[nH]cn1 (stereo not drawn)

>  <subject of test>
conscious cynomolgus monkeys

>  <endpoint unit>
%

>  <endpoint result>
6.4

$$$$

* * *

# Test system: conscious cynomolgus monkeys
# test description: Cardiovascular side effects (blood pressure, heart rate) after i.v. administration
# Type: in vivo, cynomolgus monkey
# stated conditions: i.v. 50 μg/kg, up to 6 hours; + with * = increase from base levels
Lab note: compare Maximum % Decrease From Pretreatment Levels, Mean Arterial Blood Pressure with 7%, writing Y if less and N if equal or more.

>  <compound>
Brc1c(NC2=NCCN2)ccc2nccnc12 [brimonidine, reference compound]

>  <subject of test>
conscious cynomolgus monkeys

>  <discrete label>
N

$$$$
>  <compound>
c1ccc2c(c1)CCC(Cc1c[nH]cn1)C2 (centres unmarked) [Example B-3b]

>  <subject of test>
conscious cynomolgus monkeys

>  <discrete label>
Y

$$$$
>  <compound>
c1nc(CC2CCCCC2)c[nH]1 [Example J-1, 4(5)-cyclohexylmethyl-1H-imidazole]

>  <subject of test>
conscious cynomolgus monkeys

>  <discrete label>
Y

$$$$
>  <compound>
Cc1ccsc1Cc1cnc[nH]1 [reference compound]

>  <subject of test>
conscious cynomolgus monkeys

>  <discrete label>
N

$$$$

* * *

Intrinsic Activity Relative to Oxymetazoline, Alpha 2B reference
# subject of test: rat α2B (RNG gene) receptor (Rattus norvegicus)
# Construct: expressed in transfected cells; host or cells: NIH-3T3 cells, calcium phosphate cotransfection
# Sequence (P19328 whole entry): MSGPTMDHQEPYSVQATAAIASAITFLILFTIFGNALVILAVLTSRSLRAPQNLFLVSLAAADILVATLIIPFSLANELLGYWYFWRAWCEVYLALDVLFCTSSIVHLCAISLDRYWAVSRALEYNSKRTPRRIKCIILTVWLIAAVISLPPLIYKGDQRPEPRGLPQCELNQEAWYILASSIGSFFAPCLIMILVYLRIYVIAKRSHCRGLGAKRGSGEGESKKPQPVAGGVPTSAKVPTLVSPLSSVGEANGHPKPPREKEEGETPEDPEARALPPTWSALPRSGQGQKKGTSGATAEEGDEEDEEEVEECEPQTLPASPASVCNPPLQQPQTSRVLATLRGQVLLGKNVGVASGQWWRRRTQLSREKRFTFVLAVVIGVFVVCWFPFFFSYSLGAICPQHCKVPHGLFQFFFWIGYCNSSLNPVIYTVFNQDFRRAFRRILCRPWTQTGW
# test description: RSAT (Receptor Selection and Amplification Technology) assay, alpha 2B
# Format: cell-based
# stated conditions: ratio of maximal effect to that of standard full agonist oxymetazoline
Where a name gives a salt, the structure may show the parent alone.
measurement kind: Intrinsic Activity Relative to Oxymetazoline, Alpha 2B

>  <compound>
c1ccc2c(c1)SCCC2Cc1cnc[nH]1 (stereo not drawn)

>  <subject of test>
rat α2B (RNG gene) receptor (Rattus norvegicus)

>  <endpoint result>
0.7

$$$$
>  <compound>
c1ccc2c(c1)CC(Cc1c[nH]cn1)C2

>  <subject of test>
rat α2B (RNG gene) receptor (Rattus norvegicus)

>  <endpoint result>
0.9

$$$$
>  <compound>
CC1C=CC(Cc2c[nH]cn2)CC1 (stereo not drawn)

>  <subject of test>
rat α2B (RNG gene) receptor (Rattus norvegicus)

>  <endpoint result>
0.6

$$$$
>  <compound>
O=C1c2ccccc2SCC1Cc1c[nH]cn1 (stereo not drawn)

>  <subject of test>
rat α2B (RNG gene) receptor (Rattus norvegicus)

>  <endpoint result>
0.5

$$$$
>  <compound>
CC1=CC(Cc2c[nH]cn2)CC(C)(C)C1 (stereo not drawn)

>  <subject of test>
rat α2B (RNG gene) receptor (Rattus norvegicus)

>  <endpoint result>
0.7

$$$$
>  <compound>
c1ccc(C2C3CCC(C3)C2/N=C2/NCCO2)cc1 (stereo not drawn)

>  <subject of test>
rat α2B (RNG gene) receptor (Rattus norvegicus)

>  <endpoint result>
0.47

$$$$
>  <compound>
O=C1CCCCC1Cc1c[nH]cn1 (stereo not drawn)

>  <subject of test>
rat α2B (RNG gene) receptor (Rattus norvegicus)

>  <endpoint result>
0.4

$$$$
>  <compound>
CCCCCC1=CCC(Cc2c[nH]cn2)CC1 (stereo not drawn)

>  <subject of test>
rat α2B (RNG gene) receptor (Rattus norvegicus)

>  <endpoint result>
0.87

$$$$
>  <compound>
c1ccc2c(c1)CC[C@H](Cc1c[nH]cn1)C2

>  <subject of test>
rat α2B (RNG gene) receptor (Rattus norvegicus)

>  <endpoint result>
0.8

$$$$
>  <compound>
CCC1=CC(Cc2c[nH]cn2)CCC1 (stereo not drawn)

>  <subject of test>
rat α2B (RNG gene) receptor (Rattus norvegicus)

>  <endpoint result>
0.7

$$$$
>  <compound>
O=C1c2ccncc2CCC1Cc1c[nH]cn1 (stereo not drawn) [Example R-2, dihydrochloride]

>  <subject of test>
rat α2B (RNG gene) receptor (Rattus norvegicus)

>  <endpoint result>
0.6

$$$$
>  <compound>
Cc1ccc(Cc2c[nH]cn2)s1

>  <subject of test>
rat α2B (RNG gene) receptor (Rattus norvegicus)

>  <endpoint result>
0.88

$$$$
>  <compound>
c1coc(Cc2c[nH]cn2)c1

>  <subject of test>
rat α2B (RNG gene) receptor (Rattus norvegicus)

>  <endpoint result>
1.1

$$$$
>  <compound>
OC1c2ccccc2OCC1Cc1c[nH]cn1 (stereo not drawn)

>  <subject of test>
rat α2B (RNG gene) receptor (Rattus norvegicus)

>  <endpoint result>
0.65

$$$$
>  <compound>
Clc1ccc(Cc2c[nH]cn2)s1

>  <subject of test>
rat α2B (RNG gene) receptor (Rattus norvegicus)

>  <endpoint result>
0.82

$$$$
>  <compound>
Cl.O=C1c2ccsc2CCC1Cc1c[nH]cn1 (stereo not drawn)

>  <subject of test>
rat α2B (RNG gene) receptor (Rattus norvegicus)

>  <endpoint result>
0.68

$$$$
>  <compound>
O=C1/C(=C/c2c[nH]cn2)CSc2ccccc21

>  <subject of test>
rat α2B (RNG gene) receptor (Rattus norvegicus)

>  <endpoint result>
0.5

$$$$
>  <compound>
c1ccc2c(c1)CC(Cc1c[nH]cn1)CO2 (stereo not drawn)

>  <subject of test>
rat α2B (RNG gene) receptor (Rattus norvegicus)

>  <endpoint result>
0.6

$$$$
>  <compound>
c1ccc2c(c1)CC[C@@H](Cc1c[nH]cn1)C2

>  <subject of test>
rat α2B (RNG gene) receptor (Rattus norvegicus)

>  <endpoint result>
1

$$$$
>  <compound>
c1ccc2oc(Cc3c[nH]cn3)cc2c1

>  <subject of test>
rat α2B (RNG gene) receptor (Rattus norvegicus)

>  <endpoint result>
0.48

$$$$
>  <compound>
Cl.c1ccc2c(c1)CC(Cc1c[nH]cn1)CS2 (stereo not drawn)

>  <subject of test>
rat α2B (RNG gene) receptor (Rattus norvegicus)

>  <endpoint result>
0.35

$$$$
>  <compound>
CC(c1c[nH]cn1)c1ccco1 (stereo not drawn)

>  <subject of test>
rat α2B (RNG gene) receptor (Rattus norvegicus)

>  <endpoint result>
0.9

$$$$
>  <compound>
Cc1ccc2c(c1)CC(Cc1c[nH]cn1)CC2.Cl (stereo not drawn)

>  <subject of test>
rat α2B (RNG gene) receptor (Rattus norvegicus)

>  <endpoint result>
0.6

$$$$
>  <compound>
Cc1[nH]cnc1Cc1ccc2c(c1)OCCO2

>  <subject of test>
rat α2B (RNG gene) receptor (Rattus norvegicus)

>  <endpoint result>
0.97

$$$$
>  <compound>
CC1=C(C)CC(Cc2c[nH]cn2)CC1 (stereo not drawn)

>  <subject of test>
rat α2B (RNG gene) receptor (Rattus norvegicus)

>  <endpoint result>
0.55

$$$$
>  <compound>
c1nc(Cc2ccoc2)c[nH]1

>  <subject of test>
rat α2B (RNG gene) receptor (Rattus norvegicus)

>  <endpoint result>
0.67

$$$$
>  <compound>
CC1=CC(Cc2c[nH]cn2)CCC1 (stereo not drawn)

>  <subject of test>
rat α2B (RNG gene) receptor (Rattus norvegicus)

>  <endpoint result>
0.8

$$$$
>  <compound>
CN1CCOc2ccc(N=C3NCCN3)cc21

>  <subject of test>
rat α2B (RNG gene) receptor (Rattus norvegicus)

>  <endpoint result>
0.83

$$$$
>  <compound>
c1nc(Cc2cc3c(s2)SCCC3)c[nH]1

>  <subject of test>
rat α2B (RNG gene) receptor (Rattus norvegicus)

>  <endpoint result>
0.37

$$$$
>  <compound>
C#CC1=CCC(Cc2c[nH]cn2)CC1 (stereo not drawn)

>  <subject of test>
rat α2B (RNG gene) receptor (Rattus norvegicus)

>  <endpoint result>
0.6

$$$$
>  <compound>
O=C1/C(=C/c2c[nH]cn2)COc2ccccc21

>  <subject of test>
rat α2B (RNG gene) receptor (Rattus norvegicus)

>  <endpoint result>
0.63

$$$$
>  <compound>
CC1=CC(Cc2c[nH]cn2)CC1 (stereo not drawn)

>  <subject of test>
rat α2B (RNG gene) receptor (Rattus norvegicus)

>  <endpoint result>
1.08

$$$$
>  <compound>
Brc1csc(Cc2c[nH]cn2)c1

>  <subject of test>
rat α2B (RNG gene) receptor (Rattus norvegicus)

>  <endpoint result>
1.3

$$$$
>  <compound>
C1=CCC(Cc2c[nH]cn2)CC1 (stereo not drawn)

>  <subject of test>
rat α2B (RNG gene) receptor (Rattus norvegicus)

>  <endpoint result>
0.6

$$$$
>  <compound>
c1ccc2c(c1)CCC(Cc1c[nH]cn1)C2 (stereo not drawn)

>  <subject of test>
rat α2B (RNG gene) receptor (Rattus norvegicus)

>  <endpoint result>
0.7

$$$$
>  <compound>
c1nc(CC2CCC3=C(CCCC3)C2)c[nH]1 (stereo not drawn)

>  <subject of test>
rat α2B (RNG gene) receptor (Rattus norvegicus)

>  <endpoint result>
0.75

$$$$
>  <compound>
CC1(C)CC(Cc2c[nH]cn2)Cc2ccccc21 (stereo not drawn)

>  <subject of test>
rat α2B (RNG gene) receptor (Rattus norvegicus)

>  <endpoint result>
0.3

$$$$
>  <compound>
COc1ccc2c(c1)CC(Cc1c[nH]cn1)CC2.Cl (stereo not drawn)

>  <subject of test>
rat α2B (RNG gene) receptor (Rattus norvegicus)

>  <endpoint result>
0.45

$$$$
>  <compound>
O=C1C(Cc2c[nH]cn2)CCC2NCCCC12 (stereo not drawn)

>  <subject of test>
rat α2B (RNG gene) receptor (Rattus norvegicus)

>  <endpoint result>
1.0

$$$$
>  <compound>
Cl.c1nc(CC2CC3CCCC3C2)c[nH]1 (stereo not drawn)

>  <subject of test>
rat α2B (RNG gene) receptor (Rattus norvegicus)

>  <endpoint result>
0.67

$$$$
>  <compound>
C#CC1=CC(Cc2c[nH]cn2)CCC1 (stereo not drawn)

>  <subject of test>
rat α2B (RNG gene) receptor (Rattus norvegicus)

>  <endpoint result>
0.8

$$$$
>  <compound>
CCC1=CCCCC1Cc1c[nH]cn1 (stereo not drawn)

>  <subject of test>
rat α2B (RNG gene) receptor (Rattus norvegicus)

>  <endpoint result>
0.7

$$$$
>  <compound>
O=C1c2cnccc2CCC1Cc1c[nH]cn1 (stereo not drawn)

>  <subject of test>
rat α2B (RNG gene) receptor (Rattus norvegicus)

>  <endpoint result>
0.4

$$$$
>  <compound>
Cl.c1nc(CC2CCC3SCCC3C2)c[nH]1 (stereo not drawn)

>  <subject of test>
rat α2B (RNG gene) receptor (Rattus norvegicus)

>  <endpoint result>
0.3

$$$$
>  <compound>
CC1=CCC(Cc2c[nH]cn2)CC1 (stereo not drawn)

>  <subject of test>
rat α2B (RNG gene) receptor (Rattus norvegicus)

>  <endpoint result>
0.8

$$$$
